Target: Haspin(h) (Homo sapiens, UniProt Q8TF76)
Construct: purchased Millipore
Sequence (Q8TF76 1-798): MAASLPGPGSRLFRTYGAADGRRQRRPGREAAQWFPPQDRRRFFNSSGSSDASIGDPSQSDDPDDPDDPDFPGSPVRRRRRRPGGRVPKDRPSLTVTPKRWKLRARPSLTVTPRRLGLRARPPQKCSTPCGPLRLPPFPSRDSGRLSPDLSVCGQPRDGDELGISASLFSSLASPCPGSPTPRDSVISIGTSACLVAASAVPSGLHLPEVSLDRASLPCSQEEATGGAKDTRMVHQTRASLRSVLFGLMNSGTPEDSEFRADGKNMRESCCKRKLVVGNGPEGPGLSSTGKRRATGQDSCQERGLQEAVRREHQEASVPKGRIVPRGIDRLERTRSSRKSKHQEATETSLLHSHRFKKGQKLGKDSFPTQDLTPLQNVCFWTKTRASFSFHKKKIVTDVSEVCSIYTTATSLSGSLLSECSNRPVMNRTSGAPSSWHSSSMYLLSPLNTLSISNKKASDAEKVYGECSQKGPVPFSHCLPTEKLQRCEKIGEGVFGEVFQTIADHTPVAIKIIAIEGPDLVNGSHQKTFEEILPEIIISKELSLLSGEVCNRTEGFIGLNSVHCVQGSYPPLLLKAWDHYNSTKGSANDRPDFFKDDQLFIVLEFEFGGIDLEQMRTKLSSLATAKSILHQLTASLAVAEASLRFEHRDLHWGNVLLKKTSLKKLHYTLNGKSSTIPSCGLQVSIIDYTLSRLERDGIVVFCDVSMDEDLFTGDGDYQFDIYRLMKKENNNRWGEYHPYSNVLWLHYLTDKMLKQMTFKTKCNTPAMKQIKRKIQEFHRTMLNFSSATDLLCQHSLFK
Assay: Kinase Profiling Assay
Format: biochemical
Conditions: peptide 100 μM
No end group written: not given here.
reported-metric: % activity (%)
Answers are plain numbers, in %.

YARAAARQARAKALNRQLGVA (Mammal) [MMI-0200]; 71

Quick request: % activity for each listed item, please.
1. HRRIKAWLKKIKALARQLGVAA (Mammal) [MMI-0500]
2. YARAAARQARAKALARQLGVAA [MMI-0100]
3. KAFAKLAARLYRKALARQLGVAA [MMI-0400]

1. 25
2. 127
3. 36

Fill blank: measured % activity of the sequence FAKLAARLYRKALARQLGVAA [MMI-0300] is ____. 48

Each recorded value in this set is attributed to patent US20150258192A1.
